tested-on: TEAD4 YAP50-100 (Homo sapiens)
Sequence (Q15561 217-434 limits assumed): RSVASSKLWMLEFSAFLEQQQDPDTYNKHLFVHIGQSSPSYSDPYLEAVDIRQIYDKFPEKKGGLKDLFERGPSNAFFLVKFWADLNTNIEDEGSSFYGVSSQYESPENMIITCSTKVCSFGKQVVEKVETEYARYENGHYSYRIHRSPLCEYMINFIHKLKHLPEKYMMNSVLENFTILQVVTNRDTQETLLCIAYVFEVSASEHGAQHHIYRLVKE
test: TEAD4-YAP HTRF (TR-FRET) protein-protein interaction assay
assay-context: TEAD4, YAP peptide 50-100, HTRF; read-out: TEAD4 YAP50-100 HTRF combined: EC50
Simple rule here: EC50 less than 100 nM is met, otherwise not met.

• C[C@@H]1[C@H](CF)CN1C(=O)c1c(-c2ncccn2)nn2c(=O)cc(-c3ccc(CC4CCCC4)cc3)[nH]c12 (single isomer, unassigned) [Isomer B, Example 43] = not met
• O=C(c1c(-c2ccccn2)nn2c(=O)cc(-c3ccc(C4CCCCC4)cc3)[nH]c12)N1CC(CF)C1 = met
• O=C(c1c(-c2cnccn2)nn2c(=O)cc(-c3ccc(CC4CCCC4)cc3)[nH]c12)N1CC(CF)C1 = met
• Cn1cnc(-c2nn3c(=O)cc(-c4ccc(C5CCCCC5)cc4)[nH]c3c2C(=O)N2CC(CF)C2)c1 = not met
• CC(C)c1ccnc(-c2nn3c(=O)cc(-c4ccc(C5CCCCC5)cc4)[nH]c3c2C(=O)N2CC(CF)C2)n1 = not met
• Cc1nccnc1-c1nn2c(=O)cc(-c3ccc(C4CCC(F)(F)CC4)cc3)[nH]c2c1C(=O)N1CC(CF)C1 = not met
• O=C(c1c(-c2ncccn2)nn2c(=O)cc(-c3ccc(C4CCCCC4)cc3)[nH]c12)N1CC(CF)C1 = met

###

tested-on: TEAD4 TAZ (amino acids 13-57) (Homo sapiens, UniProt Q15561)
Sequence (Q15561 217-434 limits assumed): as above
test: TEAD4-TAZ HTRF (TR-FRET) protein-protein interaction assay
Assay type: binding
assay-context: TEAD4, TAZ peptide, HTRF
assay-readout: TEAD4 TAZ HTRF combined: Max % Inhibition (%)

* CC(CO)c1nn2c(=O)cc(-c3ccc(C4CCCCC4)cc3)[nH]c2c1C(=O)N1CC[C@@H](C#N)C1 (single isomer, unassigned) [Final product obtained using Enantiomer A from Step 4, Example 54] | 44.5
* C[C@H]1[C@@H](CF)CN1C(=O)c1c(-c2cnccn2)nn2c(=O)cc(-c3ccc(CC4CCCC4)cc3)[nH]c12 (single isomer, unassigned) [Isomer B, Example 44] | 52.0
* O=C(c1c(-c2ccccc2)nn2c(=O)cc(-c3ccc(C4CCCCC4)cc3)[nH]c12)N1CC(CF)C1 | 37.5
* Cc1ccnc(-c2nn3c(=O)cc(-c4ccc(C5CCCCC5)cc4)[nH]c3c2C(=O)N2CC(CF)C2)n1 | 56.0
* Cc1nccnc1-c1nn2c(=O)cc(-c3ccc(C4CCCC4)cc3)[nH]c2c1C(=O)N1C[C@H](CF)[C@@H]1C | 65.5
* Cc1nccnc1-c1nn2c(=O)cc(-c3ccc(C4CCCCC4)cc3)[nH]c2c1C(=O)N1C[C@H](CF)[C@@H]1C (single isomer, unassigned) [Isomer B, Example 41] | 57.0
* CCN(C)C(=O)c1nn2c(=O)cc(-c3ccc(C4CCCCC4)cc3)[nH]c2c1C(=O)N1CC(CF)C1 | 37.0
* Cc1nccnc1-c1nn2c(=O)cc(-c3ccc(CC4CCCC4)cc3)[nH]c2c1C(=O)N1C[C@H](CF)[C@@H]1C (single isomer, unassigned) [Isomer B, Example 42] | 48.5
* O=C(c1c(-c2cnco2)nn2c(=O)cc(-c3ccc(C4CCCCC4)cc3)[nH]c12)N1CC(CF)C1 | 18.0
* Cc1nccnc1-c1nn2c(=O)cc(-c3ccc(CC(C)(C)C)cc3)[nH]c2c1C(=O)N1C[C@H](CF)[C@@H]1C (racemic) | 56.0
* O=C(c1c(-c2cccnc2)nn2c(=O)cc(-c3ccc(C4CCCCC4)cc3)[nH]c12)N1CC(CF)C1 | 16.5
* O=C(c1c(-c2cnccn2)nn2c(=O)cc(-c3ccc(CC4CCCC4)cc3)[nH]c12)N1CC(CF)C1 | 47.0

###

tested-on: TEAD4 TAZ (amino acids 13-57) (Homo sapiens, UniProt Q15561)
test: TEAD4-TAZ HTRF (TR-FRET) protein-protein interaction assay
Assay type: binding
assay-context: TEAD4, TAZ peptide, HTRF
assay-readout: TEAD4 TAZ HTRF combined: Max % Inhibition (%)

• O=C(c1c(-c2nccnc2C(F)(F)F)nn2c(=O)cc(-c3ccc(C4CCCCC4)cc3)[nH]c12)N1CC(CF)C1 = 50.0
• C[C@@H]1[C@H](CF)CN1C(=O)c1c(-c2cnccn2)nn2c(=O)cc(-c3ccc(C4CCCCC4)cc3)[nH]c12 (single isomer, unassigned) [Isomer B, Example 39] = 49.5
• O=C(c1c(-c2ncccn2)nn2c(=O)cc(-c3ccc(CC4CCCC4)cc3)[nH]c12)N1CC(CF)C1 = 54.0
• COc1nccnc1-c1nn2c(=O)cc(-c3ccc(C4CCCCC4)cc3)[nH]c2c1C(=O)N1CC(CF)C1 = 40.0
• C[C@H]1[C@@H](CF)CN1C(=O)c1c(-c2ncccn2)nn2c(=O)cc(-c3ccc(CC4CCCC4)cc3)[nH]c12 (single isomer, unassigned) [Isomer A, Example 43] = 52.0
• C[C@@H]1[C@H](CF)CN1C(=O)c1c(C(=O)N(C)C)nn2c(=O)cc(-c3ccc(C4CCCCC4)cc3)[nH]c12 = 14.0

###

tested-on: TEAD3 TAZ (amino acids 13-57) (Homo sapiens)
test: TEAD3-TAZ HTRF (TR-FRET) protein-protein interaction assay
assay-context: TEAD3-TAZ HTRF, TR-FRET 665 nm/615 nm; read-out: TEAD3 TAZ HTRF combined: EC50
pEC50: −log10 of the molar value.
assay-readout: pEC50

• Cc1nccnc1-c1nn2c(=O)cc(-c3ccc(C4(F)CCCCC4)cc3)[nH]c2c1C(=O)N1CC(CF)C1 = 6.47
• Cc1nccnc1-c1nn2c(=O)cc(-c3ccc(C4CCCCC4)cc3)[nH]c2c1C(=O)N(C)C = 7.15
• CC1CCN1C(=O)c1nn2c(=O)cc(-c3ccc(C4CCCCC4)cc3)[nH]c2c1C(=O)N1CC(CF)C1 (single isomer, unassigned) [Enantiomer A, Example 33] = 6.68

###

# EC50 values compiled below
tested-on: TEAD3 TAZ (amino acids 13-57) (Homo sapiens, UniProt Q99594)
Sequence (Q99594 173-435 limits assumed): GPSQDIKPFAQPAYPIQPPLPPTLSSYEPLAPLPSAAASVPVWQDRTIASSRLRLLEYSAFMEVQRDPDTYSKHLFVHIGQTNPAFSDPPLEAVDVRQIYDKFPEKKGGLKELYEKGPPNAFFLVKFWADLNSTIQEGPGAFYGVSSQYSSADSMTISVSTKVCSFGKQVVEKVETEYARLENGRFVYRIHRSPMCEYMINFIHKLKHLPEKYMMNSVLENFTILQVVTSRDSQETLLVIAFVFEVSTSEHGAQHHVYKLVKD
test: TEAD3-TAZ HTRF (TR-FRET) protein-protein interaction assay
assay-context: TEAD3-TAZ HTRF, TR-FRET 665 nm/615 nm; read-out: TEAD3 TAZ HTRF combined: EC50
assay-readout: EC50 (nM)

• N#Cc1nccnc1-c1nn2c(=O)cc(-c3ccc(C4CCCCC4)cc3)[nH]c2c1C(=O)N1CC(CF)C1 = 120
• O=C(c1c(-c2nccc(C(F)(F)F)n2)nn2c(=O)cc(-c3ccc(C4CCCCC4)cc3)[nH]c12)N1CC(CF)C1 = 120
• O=C(c1nn2c(=O)cc(-c3ccc(C4CCCCC4)cc3)[nH]c2c1C(=O)N1CC(CF)C1)N1CCCC1 = 200
• CCc1ccnc(-c2nn3c(=O)cc(-c4ccc(C5CCCCC5)cc4)[nH]c3c2C(=O)N2CC(CF)C2)n1 = 240
• O=C(c1c(-c2ccccc2)nn2c(=O)cc(-c3ccc(C4CCCCC4)cc3)[nH]c12)N1CC(CF)C1 = 250
• C[C@H]1[C@@H](CF)CN1C(=O)c1c(C(=O)N(C)C)nn2c(=O)cc(-c3ccc(C4CCCCC4)cc3)[nH]c12 = 140
• O=C(c1c(-c2cnccn2)nn2c(=O)cc(-c3ccc(CC4CCCC4)cc3)[nH]c12)N1CC(CF)C1 = 40

###

Catalogue of TEAD3 TAZ HTRF combined: Max % Inhibition readings, one per entry.
tested-on: TEAD3 TAZ (amino acids 13-57) (Homo sapiens, UniProt Q99594)
test: TEAD3-TAZ HTRF (TR-FRET) protein-protein interaction assay
Assay type: binding
assay-context: TEAD3, TAZ peptide, HTRF
Protocol: Purified His-tagged TEAD protein (YAP Binding Domain, amino acids 217-447) is pre-incubated with Europium labelled anti-His antibody tracer (Perkin Elmer Cat #AD0110). […] After 60 minutes, the plate is read on a plate reader using TR-FRET mode with wavelengths of 665 nm/615 nm. […] The potency of compounds as YAP:TEAD or TAZ:TEAD protein-protein interaction (PPi) inhibitors is determined by an IC50 or EC50 value generated using a non-linear four parameter curve fit.
assay-readout: TEAD3 TAZ HTRF combined: Max % Inhibition (%)

- Cc1nccnc1-c1nn2c(=O)cc(-c3ccc(CC4CCCC4)cc3)[nH]c2c1C(=O)N1C[C@H](CF)[C@@H]1C (single isomer, unassigned) [Isomer B, Example 42]: 60.0
- Cn1cnc(-c2nn3c(=O)cc(-c4ccc(C5CCCCC5)cc4)[nH]c3c2C(=O)N2CC(CF)C2)c1 [Compound 32]: 49.5
- CC(C)c1ccnc(-c2nn3c(=O)cc(-c4ccc(C5CCCCC5)cc4)[nH]c3c2C(=O)N2CC(CF)C2)n1 [Compound 10]: 61.5
- [2H]C1([2H])C([2H])([2H])C([2H])([2H])C([2H])(c2ccc(-c3cc(=O)n4nc(-c5nccnc5C)c(C(=O)N5C[C@H](CF)[C@@H]5C)c4[nH]3)cc2)C([2H])([2H])C1([2H])[2H] [Compound 72]: 71.5
- Cc1nccnc1-c1nn2c(=O)cc(-c3ccc(CC4CCCC4)cc3)[nH]c2c1C(=O)N1C[C@@H](CF)[C@H]1C (single isomer, unassigned) [Isomer A, Example 42]: 66.0
